Test system: MDA-N
assay info: NCI tumour cell line growth inhibition, 48 h
Calls of active or inactive are those of the source. No stated cut-off is given here; in the data, active = GI50 up to about 1.1 µM and inactive = higher.
API: response.call in True = active, False = inactive

## Input Write down the call the test reported for this molecule. Item: CCOC(=O)C(=[N+]=[N-])C(=O)C1(C(=O)OCC)CCN(C(=O)c2ccccc2)C1=O (stereo unspecified)
## Output False

## Input // next record NNS(=O)(=O)c1cc(C(=O)O)cc(C(=O)O)c1
## Output False

## Input // next record CCCCNc1nc2ccccc2c2c1ncn2CC(C)C
## Output False

## Input // next record O=S1(=O)CCC2=CC(C(F)(F)F)=CC(C(F)(F)F)=CN21
## Output True

## Input // next record N#Cc1c(N2CCCC2)nsc1Nc1ccccc1
## Output False

## Input // next record N/C(=N\Nc1ccc(Cl)cc1)c1cnccn1
## Output False

## Input // next record N#CC(NNC(=O)c1c(Cl)c(Cl)c(Cl)c(Cl)c1-c1nc2cc(C(=O)c3ccccc3)ccc2[nH]1)c1cccc(Oc2ccccc2)c1 (stereo unspecified)
## Output False

## Input // next record Cc1nc2nn[nH]n2c(=O)c1CCO
## Output False

## Input // next record CCOC(=O)c1c(C)n(C)c2c1cc(O)c1[nH]c3c(c12)CCCC3
## Output False

## Input // next record CC1=CC(=O)/C(=C/N2C(=O)CNC2=S)C(=O)O1
## Output False

## Input // next record [N-]=[N+]=Nc1c(Cl)c(Cl)nc2ccccc12
## Output False

###

Test system: NCI-H460
assay info: NCI tumour cell line growth inhibition, 48 h
Active and inactive are the calls of the source. Cut-off read from the data, not from the text of the source: active = GI50 up to about 1.1 µM and inactive = higher.
API: response.call in class 1 = active, class 0 = inactive

## Input Write down the call the test reported for this molecule. Item: Nc1ccc(-c2nc3ccccc3s2)cc1Br
## Output class 0

## Input // next record S=C(Nc1ccc(Cl)cc1)c1ccc(CN2CCCCC2)s1
## Output class 0

## Input // next record COc1ccc(NC(=O)CC/C(CC(=O)C(C)(C)C)=N\NC(=O)C(=O)NN)cc1
## Output class 0

## Input // next record COc1ccc2nc3ccc(OC)cc3c([S+]([O-])Cc3ccccc3)c2c1 (stereo unspecified)
## Output class 0

## Input // next record CCc1c(Cl)nc(Cl)nc1Cl
## Output class 0

## Input // next record CCOC(=O)C1(C(=O)OCC)Nc2cccnc2N(C)N1
## Output class 0

## Input // next record NC(C(=O)O)C(N)C(=O)O (stereo unspecified)
## Output class 0

## Input // next record COc1nc(SC)nc2c1C(O)n1c(nc3ccccc31)S2 (stereo unspecified)
## Output class 0

## Input // next record O=c1nc(N2CCN(c3ccccc3)CC2)ccn1C1OC(CO)C(O)C1O (stereo unspecified)
## Output class 0

## Input // next record Fc1nc(-c2c3ccccc3c3sc4ccccc4n23)nc(N2CCOCCOCCOCCOCC2)n1
## Output class 0

## Input // next record COC1CC(C)C(OC)c2cc(O)cc(c2O)NC(=O)/C(C)=C/C=C\C(C)C(OC(N)=O)/C(C)=C\C(C)C1OC (stereo unspecified)
## Output class 1

###

System: HOP-62
assay info: NCI tumour cell line growth inhibition, 48 h
Active and inactive are the calls of the source. Rule as the data show it: active = GI50 up to about 1.1 µM and inactive = higher.
API: response.call in active, inactive

## Input Write down the call the test reported for this compound. Item: COc1ccc2c(c1)c(=O)c1c(NCCCN(C)CCCNc3ccc4c(=O)n(CCN(C)C)c(=O)n5c6ccc(OC)cc6c(=O)c3c45)ccc3c(=O)n(CCN(C)C)c(=O)n2c31
## Output active

## Input // next record O=c1c2cc3c(=O)n4c(cc(-c5ccccc5)c5cc(Cl)ccc54)nc3cc2nc2cc(-c3ccccc3)c3cc(Cl)ccc3n12
## Output inactive

## Input // next record CC1CCCP(=O)(c2ccccc2)CCC1 (stereo unspecified)
## Output inactive

## Input // next record O[C@H]1[C@H](O)[C@H](O)CN2CCC[C@@H](O)[C@H]12
## Output inactive

## Input // next record CCOC(=O)C(Cc1ccc(OC(=O)OC(C)(C)C)cc1)NC(=O)OC(C)(C)C (stereo unspecified)
## Output inactive

## Input // next record Cc1cccc(C)c1NC(=O)C1C(=O)N(c2c(C)cccc2C)C(=O)/C1=N\N (stereo unspecified)
## Output inactive

## Input // next record CC(=O)OC1=C(CC(C)(C)C)C(=O)c2ccccc2C1=O
## Output inactive

## Input // next record CN(C)c1cc2ccccc2oc1=O
## Output inactive

## Input // next record Nc1nc(N)c2nnn(C[C@H]3CC[C@@H](CO)C3)c2n1
## Output inactive

## Input // next record NC(=O)CSc1c2cc(O)ccc2nc2ccc(O)cc12
## Output inactive

## Input // next record COC(=O)C1=C(OC(=O)/C(=C/c2ccc(Cl)cc2)c2ccc(Cl)cc2)C(C(=O)OC)[C@@]2(O)[C@@H](C(=O)OC)[C@H](C)C[C@@H]1[C@@H]2C(=O)OC (stereo partly specified)
## Output inactive

## Input // next record NC(=O)C(c1ccccc1)N1CCOCC1 (stereo unspecified)
## Output inactive

## Input // next record CCOC(=O)/C(C(C)=O)=C1/N[C@H](C(=O)OCC)CS1
## Output inactive

## Input // next record CC(=O)O[C@H]1C[C@H](O[C@H]2[C@@H](O)C[C@H](O[C@H]3[C@@H](O)C[C@H](O[C@H]4CC[C@@]5(C)[C@H](CC[C@@H]6[C@@H]5CC[C@]5(O)[C@@H](C7=CC(=O)OC7)CC[C@]65O)C4)O[C@@H]3C)O[C@@H]2C)O[C@H](C)[C@H]1O[C@@H]1O[C@H](CO)[C@@H](O)[C@H](O)[C@H]1O
## Output active

## Input // next record CC1=C(C(=O)Nc2ccccc2C)C(c2ccccc2)C(C(=O)Nc2ccccc2C)=C(C)N1
## Output inactive

## Input // next record CCOC(=O)c1ccc(-c2cc(C)[nH]n2)[nH]1
## Output inactive

## Input // next record CCOP(=O)(CN1CCNCCN(CP(=O)(OCC)OCC)CC1)OCC
## Output inactive

## Input // next record CCOC(=N)CC(=O)Nc1cccc(Cl)c1
## Output inactive

## Input // next record O=[PH](O)c1cc2ccccc2c2ccccc12
## Output inactive

## Input // next record COC(=O)c1cc(/C=C\c2cc(OC)ccc2OC)ccc1OC
## Output inactive

## Input // next record O=C(Oc1ccccn1)c1cc2cc(CCl)ccc2oc1=O
## Output inactive

## Input // next record CC1=CC(=O)/C(=C/N2C(=O)CNC2=S)C(=O)O1
## Output inactive

## Input // next record N=C(c1ccccc1)N(c1ccccc1)c1ccccc1
## Output inactive

## Input // next record COc1ccc(C(=O)NCCN(C)C)c2nc3ccccc3cc12
## Output active

## Input // next record O=C(CC(O)(C(F)(F)F)C(F)(F)Cl)CC(O)(C(F)(F)F)C(F)(F)Cl (stereo unspecified)
## Output inactive

## Input // next record CN(C)CCNc1ccc2c(=O)n(CCN(C)C)c(=O)n3c4ccc([N+](=O)[O-])cc4c(=O)c1c23
## Output active

## Input // next record Cc1nc(N)sc1C(=O)/C=C/c1ccc([N+](=O)[O-])cc1
## Output inactive

## Input // next record Nc1ncnc2c1ncn2[C@@H]1C[C@@H]1CO
## Output inactive

## Input // next record Cc1c(N)c(C#N)c2n(C)c3ncccc3n2c1=O
## Output inactive

## Input // next record COc1cc2c(c(OC)c1OC)-c1ccc(SC)c(=O)cc1[C@@H](OC(C)=O)CC2
## Output active

## Input // next record Nc1ccc(-c2nc3ccccc3s2)cc1Br
## Output inactive

## Input // next record O=C(Nc1ccc([N+](=O)[O-])cc1C(=O)O)c1ccc([N+](=O)[O-])cc1
## Output inactive

## Input // next record OC(CC1SCCCS1)c1ccccc1 (stereo unspecified)
## Output inactive

## Input // next record COc1ccc(/C=C/C(=O)c2cc(C(=O)O)c(OC)cc2OC)cc1OC
## Output inactive

## Input // next record CC1(C)CC2C(=O)c3ccccc3NC2c2ccccc21 (stereo unspecified)
## Output inactive

## Input // next record CC1(C)O[C@H](C(=O)O)[C@@H](C(=O)O)O1
## Output inactive

## Input // next record O=c1n(CCO)nc2n1CCCN2
## Output inactive

## Input // next record Cc1ccc(NC(=O)C(=O)C2C(=O)NC(=O)NC2=O)c(C)c1
## Output inactive

## Input // next record CCCCCCCC(=O)OCC1OC(n2cc(F)c(=O)[nH]c2=O)C(NC(=O)OCc2ccccc2)C(O)C1O (stereo unspecified)
## Output inactive

## Input // next record O=C(Cc1nc2ccccc2s1)C(=O)Nc1cccc(Cl)c1
## Output inactive

## Input // next record COC(=O)C(CCSC)NC(=O)Cc1ccc(C(=O)c2ccccc2)cc1 (stereo unspecified)
## Output inactive

The values you see were collected from ChEMBL document CHEMBL1201862.
